For each of the molecules below, state its Percentage inhibition of ligand binding, Adrenergic α2B (10 nM).
molecular target: Human adrenergic α2B receptor (Homo sapiens); assay: Radioligand binding, adrenergic α2B (Protocol Group B); parameters: purchased Milipore (Millipore); conditions: 10 nM compound; Protocol Group B; 0.01 µM
Sequence (P18089 whole entry): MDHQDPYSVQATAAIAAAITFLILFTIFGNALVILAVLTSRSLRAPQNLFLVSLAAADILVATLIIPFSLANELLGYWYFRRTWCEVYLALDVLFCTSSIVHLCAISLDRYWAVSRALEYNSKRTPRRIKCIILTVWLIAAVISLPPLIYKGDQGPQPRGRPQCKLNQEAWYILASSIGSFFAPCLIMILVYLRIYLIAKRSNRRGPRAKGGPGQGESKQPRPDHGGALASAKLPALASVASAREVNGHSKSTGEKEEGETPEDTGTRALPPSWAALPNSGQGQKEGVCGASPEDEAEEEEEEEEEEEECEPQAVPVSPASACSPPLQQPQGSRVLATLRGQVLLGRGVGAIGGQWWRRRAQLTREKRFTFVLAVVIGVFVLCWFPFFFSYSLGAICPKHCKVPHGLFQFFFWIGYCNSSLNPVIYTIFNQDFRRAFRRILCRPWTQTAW
Field note: include the unit after the figure.

Please review the entries below; each comes with its answer.
Cc1ccc2c(c1)c1c(n2CC(C)(O)c2cccnc2)CC2CCCN2C1 (stereo not drawn) [41b] = −14%
CCCOC(Cn1c2c(c3cc(C)ccc31)CN(C)CC2)c1ccncc1 (single isomer, unassigned) [42b] = 86%

Report Percentage inhibition of ligand binding, Adrenergic α2B (10 nM) for each item below.
1. Cc1ccc2c(c1)c1c(n2CC(C)(O)c2ccncc2)CC2CCCN2C1 (single isomer, unassigned) [37d]
2. Cc1cc(C)c2c(c1)c1c(n2CC(C)(O)c2ccncc2)CCN2CCCC12 (single isomer, unassigned) [19c]
3. CC(O)(Cn1c2c(c3cc(Cl)cc(F)c31)CN1CCCC1C2)c1cccnc1 (single isomer, unassigned) [63a]

1. 15%
2. −13%
3. 25%

Report Percentage inhibition of ligand binding, Adrenergic α2B (10 nM) for each item below.
1. Cc1cc(F)cc2c3c(n(CC(C)(O)c4cccnc4)c12)CC1CCCN1C3 (single isomer, unassigned) [76a]
2. Cc1cc(C)c2c(c1)c1c(n2CC(C)(O)c2ccncc2)CCN2CCCC12 (single isomer, unassigned) [19d]
3. Cc1ccc2c(c1)c1c(n2CC(C)(O)c2cccnc2)CC2CCCN2C1 (stereo not drawn) [41a]
4. Cc1ccc2c(c1)c1c(n2CC(C)(O)c2cccnc2)CC(CO)N(C)C1 (single isomer, unassigned) [15b]

["12%", "−9%", "24%", "6%"]

FYI, the data here is from patent US20150315188A1.
